- protocol details: inhibitors of the yeast RAM network, pilot screen, dse1pr::URA3 reporter, 5-FOA selection (AID 869);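 note: 0% = DMSO wells with no growth and 100% = 10 µM 1-NA-PP1 with full growth; RAM network block rescues cells from 5-FOA so hits raise OD615 growth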
- condition parameters: S. cerevisiae dse1pr::URA3 5-FOA growth, OD615, 2 d; at 10 µM; stronger effect = higher value; strain carries analog-sensitive mutant Cbk1 kinase
metric name: inhibition (%)
Quick note: give the figure in %, leave out the unit.

Need inhibition of `O=C(CCSCCC(=O)NCc1ccco1)NCc1ccco1` , thanks.
0.745

Need inhibition of O=C(Nc1ccc(S(=O)(=O)N2CCOCC2)cc1)C1COc2ccccc2O1 (configuration not stated) , thanks.
0.055

Need inhibition of `COc1ccc(-c2nc(N3CCOCC3)nc3n[nH]c(N)c23)cc1` , thanks.
0.26

Need inhibition of `COC(=O)c1cn(NC(=O)c2cnccn2)c(=O)c2ccccc12` , thanks.
1.15

Need inhibition of `CCCSc1n[nH]c(NC(C)=O)n1` , thanks.
2.27

Need inhibition of `CCOC(=O)c1nnn(-c2nonc2N)c1COc1ccccc1` , thanks.
0.05

Need inhibition of O=C1CC(c2ccccc2)C(C(=O)O)N1 (configuration not stated) , thanks.
2.74

Need inhibition of COC(=O)c1ccc(N2C(=O)CC(Sc3n[nH]c(C)n3)C2=O)cc1 (configuration not stated) , thanks.
1.42

Need inhibition of `O=C(NCc1ccc2c(c1)OCO2)C1CCN(c2ccc(S(=O)(=O)N3CCCC3)cc2)CC1` , thanks.
3.25

Need inhibition of `Cn1c(Cn2c(=O)sc3ccccc32)nnc1SCC(=O)Nc1ccccc1F` , thanks.
1.62

Need inhibition of `COc1ccc(Oc2ccc(S(=O)(=O)N3CCCCC3)cc2S(=O)(=O)N2CCCCC2)cc1` , thanks.
1.56

Need inhibition of `Cn1c(Cn2c(=O)sc3ccccc32)nnc1SCC(=O)N1CCOCC1` , thanks.
2.92

Need inhibition of `O=C(CSc1ccc2nnc(-c3ccc(Cl)cc3)n2n1)N1CCCC1` , thanks.
1.32

Need inhibition of O=S(=O)(NC1CCCCC1NCc1ccco1)c1ccccc1 (configuration not stated) , thanks.
1.82

Need inhibition of CC1CCN(CCNC(=O)c2ccc(NC(=O)C3CCCO3)cc2)CC1 (configuration not stated) , thanks.
1.95

Need inhibition of `O=C(CN1CCN(c2ccccn2)CC1)N(c1ccccc1)c1ccc2ccccc2c1` , thanks.
2.88

Need inhibition of `Cc1nn(Cc2ccccc2)c(N)c1C#N` , thanks.
1.58

Need inhibition of `O=C(Cn1cc2c(n1)CCCC2)NCCCN1CCN(c2ccccc2F)CC1` , thanks.
0.665

Need inhibition of `O=C(COc1ccc(S(=O)(=O)NC2CCCCC2)cc1)N1CCN(c2ccc(F)cc2)CC1` , thanks.
-0.725

Need inhibition of `O=c1cc(-c2c(F)c(F)c(F)c(F)c2F)oc2c(F)c(F)c(F)c(F)c12` , thanks.
-0.35

Need inhibition of O=C(O)c1cccc(N2C(=O)C3CC=C(Cl)CC3C2=O)c1 (configuration not stated) , thanks.
1.16

Need inhibition of `CCc1ccc(NC(=O)Cn2c(=O)oc3cc(S(=O)(=O)N4CCOCC4)ccc32)cc1` , thanks.
1.83

Need inhibition of `COc1ccccc1-n1c(SC)nc(O)cc1=O` , thanks.
2.01

Need inhibition of `CN1CCCc2cc3c(C(F)(F)F)cc(=O)oc3nc21` , thanks.
1.14

Need inhibition of `CSc1nnc(NC(=O)C2CCCCC2)s1` , thanks.
-0.045

Need inhibition of `Cc1c(C(=O)NCc2ccco2)sc2nc(-c3ccccc3)cn12` , thanks.
0.04

Need inhibition of `CCCC(=O)NCCCc1nc2ccccc2n1C` , thanks.
-0.03
